Catalogue of binders with associated Kd
target_of_assay: T1, secretory phospholipase A2 (sPLA2) (Homo sapiens, UniProt P14555 P14555:21-144)
T1 sequence: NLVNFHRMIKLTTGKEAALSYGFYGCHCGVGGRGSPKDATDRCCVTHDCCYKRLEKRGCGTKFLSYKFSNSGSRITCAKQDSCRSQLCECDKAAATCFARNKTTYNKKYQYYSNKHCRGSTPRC
experiment: filter; monophasic; TBSC, 37 C
condition_details: tags: supplied by Eli Lilly; hairpin with asymmetric internal loop
readout_kind: Kd (nM)

| binder | readout_kind | recorded_number |
| --- | --- | --- |
| NN5 (ssRNA, 2'-NH2 all C and U) RNA: GGGAAAAGCGAAUCAUACACAAGACCGGCCCCGCCAAUCAAGGGAGAUCCGAGGAAUUGGAAUGUUUGUGAGUGAGCUCCGCCAGAGACCAACCGAGAA | Kd | 4.6 |
| NN10 (ssRNA, 2'-NH2 all C and U) RNA: GGGAAAAGCGAAUCAUACACAAGACCGGCCGGCGCCAUAGCCGAGAUCCGAGGUUGUACGAUGACAACUCAGUGCUCCGCCAGAGACCAACCGAGAA | Kd | 0.4 |
